- Species: Rattus norvegicus
- method notes: Open TG-GATES - Regimen: Daily Repeat
- Format: toxicity, organism-based, Sprague-Dawley
- Parameters: regimen Daily Repeat, gender Male, age 6 weeks
- study conditions: in vivo, po, 100 mg/kg, 72 h, tissue Plasma, route gavage, dose level Low, time 3 day
Listing: PL of selected compounds
Number only, in mg/dL; omit the unit.

Solved entries:
[in] Please look at this compound and report its PL: CCCCNC(=O)NS(=O)(=O)c1ccc(C)cc1 [TOLBUTAMIDE]
[out] 156.4

[in] Give a short answer stating reported PL for O=C(O)c1ccccc1Nc1ccccc1 [FENAMIC ACID] .
[out] 144.2

[in] Quote PL reported for CC(=O)[C@@]1(O)CC[C@H]2[C@@H]3C=C(Cl)C4=CC(=O)CC[C@]4(C)[C@H]3CC[C@@]21C [CHLORMADINONE] please.
[out] 160.2

---
[in] Report measured PL; entry is CC(S)C(=O)NCC(=O)O (centres undefined) [TIOPRONIN]
[out] 139.8
